procedure-summary: protein stability index of a GFP-peptide fusion (yeast GPS) (PSI 1-4); higher = more stable; sorted into four equal gates, so the index is relative within each strain
measurement-setup: ubr1∆
Task for the reader: assign each of the following sequences its reported protein stability index.
I only need the number, thanks.

Ask: What measured protein stability index goes with TFPPEVLARISPELSLQ [RRP43] ?
Reply: 2.67

Ask: Return reported protein stability index; argument: AARDNKKTRIIPRHLQL [HTA1]
Reply: 3.15

Ask: Please give the measured protein stability index for this sequence: KERIIRAFLIEEQKIVK [RPL34A]
Reply: 2.49

Ask: Please give the measured protein stability index for this sequence: PKKFGGKGARSRFQKSY [RPS16A]
Reply: 2.93

Ask: // returns reported protein stability index for input KAPTKLDDPEAVSKDPL [DIS3]
Reply: 3.26

Ask: What value of measured protein stability index is listed for RLTAKRLIEHDPVEGNL [SRP14] ?
Reply: 2.16

Numbers sourced from the supplement of paper PMC9732359.
